# MEASUREMENT_NOTES: ovarian cancer cell viability with rucaparib, profiling panel, oncology-focused library, rucaparib conditional (AID 1508598)
# CONDITION_SUMMARY: patient-derived ovarian cancer cells, CellTiter-Glo viability, 144 h; at 0.00122 µM; OCI-C5x cells; with rucaparib 10 µM; hits give low values; 100% = cells with rucaparib alone
TEST_READOUT: viability (%)
Answer in %, number only, no unit symbol.

So what's the measured viability for this one? `Nc1nc(F)nc2c1ncn2[C@@H]1O[C@H](COP(=O)(O)O)[C@@H](O)[C@@H]1O`
107

Try this compound next: `O=c1[nH]c(-c2ccc(C(F)(F)F)cc2)nc2c1CSCC2`
108

Try this compound next: `N#Cc1c(O)c2c(-c3ccc(-c4ccccc4O)cc3)csc2[nH]c1=O`
115

Try this compound next: CC(NC(=O)c1ccccc1N=Cc1c(O)ccc2ccccc12)c1ccccc1 (stereo not given)
122

Try this compound next: `CC(C)c1onc(-c2c(Cl)cccc2Cl)c1COc1ccc(/C=C/c2cccc(C(=O)O)c2)c(Cl)c1`
107

---

# SUBJECT_OF_TEST: Calcium-activated potassium channel subunit alpha-1 (Homo sapiens) + Leucine-rich repeat-containing protein 26 (Homo sapiens) (UniProt Q12791+Q2I0M4)
# Sequence (Q2I0M4 whole entry, looked up, one chain of several): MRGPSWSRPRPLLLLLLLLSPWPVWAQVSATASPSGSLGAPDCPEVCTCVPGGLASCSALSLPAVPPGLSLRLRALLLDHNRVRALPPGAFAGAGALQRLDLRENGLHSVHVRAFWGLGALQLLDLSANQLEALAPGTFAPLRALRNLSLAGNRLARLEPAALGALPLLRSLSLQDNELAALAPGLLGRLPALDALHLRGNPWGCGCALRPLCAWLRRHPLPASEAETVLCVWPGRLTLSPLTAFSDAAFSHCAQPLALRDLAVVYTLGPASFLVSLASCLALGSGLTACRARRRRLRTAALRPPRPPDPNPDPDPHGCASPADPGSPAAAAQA
# MEASUREMENT_NOTES: modulators of BK channel variants, profiling panel, selectivity assay, cell-based, U2OS BacMam, thallium flux, beta subunits (AID 1259406);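 note: initial slope of Thallos dye fluorescence rise after thallium is added; log ratio against the mean of 0.3% DMSO vehicle wells on the same plate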
# CONDITION_SUMMARY: F380Y/Slo1WT/gamma1, at 30 µM
Activity calls are given as the source filed them.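 The calls were made as follows: active = thallium flux through the channel raised or lowered by more than 3 SD from vehicle-only wells, actives on both sides; inactive = the rest.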
// allowed return values: y = active, n = inactive

Answer briefly: the call reported for `COC(=O)c1cc(S(=O)(=O)N(Cc2ccc(OC)cc2)Cc2cccn2C)oc1C` in this assay.
y

Try this molecule next: `COc1cc(C(=O)Nc2ccccc2C(=O)NCCc2ccccn2)cc(OC)c1OC`
n

Try this molecule next: `Cn1c(Sc2cnc(=S)[nH]c2-c2ccc(Cl)cc2)nnc1C(F)(F)F`
n

Try this molecule next: `Nc1ncnc2c1ncn2[C@@H]1O[C@H](CO)C[C@@H]1O`
n

Try this molecule next: `Cc1cc(NS(=O)(=O)c2ccc(NC(=O)c3nccnc3C(=O)O)cc2)no1`
y

Try this molecule next: `O=S(=O)(c1ccc(N2CCOCC2)nc1)N1CCN(c2c(Cl)cncc2Cl)CC1`
n

Try this molecule next: NC(=O)c1ncn(C2OC(CO)C(O)C2O)n1 (centres undefined)
n

Try this molecule next: CC(=CCC1=C(C)C(=O)c2ccccc2C1=O)CCCC(C)CCCC(C)CCCC(C)C (centres undefined)
n

Try this molecule next: CS(=O)(=NS(=O)(=O)c1ccc(OC(F)(F)F)cc1)c1ccccc1 (centres undefined)
n

Try this molecule next: `Oc1c(Cl)cc(Cl)cc1C=Nc1nccs1`
n

Try this molecule next: `Oc1ccccc1C=NCCN=Cc1ccccc1O`
n

Try this molecule next: `O=C1CCC(=O)N1c1ccc(S(=O)(=O)NCCCN2CCN(Cc3ccccc3)CC2)cc1`
n

Try this molecule next: `O=C(O)COCCN1CCN([C@H](c2ccccc2)c2ccc(Cl)cc2)CC1`
n

Try this molecule next: `CN(C)c1ccc(C=NNC(N)=S)c(Cl)c1`
y

Try this molecule next: `O=S(=O)(Nc1cc(Cl)c(-n2cccc2)cc1Oc1ccc(Cl)cc1)c1ccc(Cl)cc1`
n

Try this molecule next: CC(C)c1ccc(NC(=S)NC2CC3CC2C2C=CCC32)cc1 (centres undefined)
y

Try this molecule next: `Cc1cc2c(cc1C)CSC(c1ccco1)SC2`
n

Try this molecule next: `O=S(=O)(Oc1ccc(F)cc1F)c1cccc(S(=O)(=O)Oc2ccc(F)cc2F)c1`
y

Try this molecule next: `Cc1nn(Cc2nnc(-c3cc(C(F)(F)F)cc(C(F)(F)F)c3)o2)c(C)c1Br`
n

Try this molecule next: `N#CC(CCC(=O)O)(CCC(=O)O)S(=O)(=O)c1ccccc1`
n

Try this molecule next: `Cc1cc(NC(=S)N2CCCCCC2)ccc1Br`
n

Try this molecule next: `COc1c(N2C[C@@H]3CCCN[C@@H]3C2)c(F)cc2c(=O)c(C(=O)O)cn(C3CC3)c12`
n

Try this molecule next: `CCOC(=O)c1nn(-c2ccc(C(C)(C)C)cc2)c(=O)c(C#N)c1C`
y

Try this molecule next: `O=C(CN1c2ccccc2Sc2ccccc21)NN=Cc1ccco1`
n

Try this molecule next: Cc1onc(-c2ccccc2)c1C(=O)NC1C(=O)N2C1SC(C)(C)C2C(=O)O (centres undefined)
n

Try this molecule next: `O=C(C(=NN=Cc1ccc2c(c1)OCO2)c1ccccc1)c1ccccc1`
n

Try this molecule next: `O=C(O)C(Cc1ccccc1[N+](=O)[O-])=NNc1ccccc1`
n

Try this molecule next: CC(N)(Cc1ccc(O)c(O)c1)C(=O)O (centres undefined)
n

Try this molecule next: `FC(F)(F)c1cc(C=Cc2noc(-c3ccc(CN4CCCC4)cc3)n2)cc(C(F)(F)F)c1`
n

Try this molecule next: `O=C(Cn1ccc(C(F)(F)F)n1)c1ccc(Cl)cc1`
n

Try this molecule next: `CN(C1CCCCC1)S(=O)(=O)c1cccs1`
n

Try this molecule next: `CC(=O)C1=C(C)Nc2ccccc2S1`
n

Try this molecule next: `COC(=O)C(C#N)=C1NC(C)=NC(SC)=C1C#N`
n

Try this molecule next: `COC(=O)Nc1nc2ccc(C(=O)c3ccc(F)cc3)cc2[nH]1`
n

Try this molecule next: CC1=NC2SC=C(c3ccccc3Cl)N2C(=O)C1 (centres undefined)
n

Try this molecule next: `C=CCc1ccc(O)c(-c2ccc(O)c(CC=C)c2)c1`
y

Try this molecule next: CC(C)NCC(O)c1ccc(NS(C)(=O)=O)cc1 (centres undefined)
n

Try this molecule next: `N#CC(=Cc1cccs1)C(N)=O`
n

Try this molecule next: `CC(=O)CCCCn1cnc2c1c(=O)n(C)c(=O)n2C`
n

Try this molecule next: `CO[C@H]1C=CO[C@@]2(C)Oc3c(C)c(O)c4c(O)c(c5c(c4c3C2=O)NC2(CCN(CC(C)C)CC2)N=5)=NC(=O)C(C)=CC=C[C@H](C)[C@H](O)[C@@H](C)[C@@H](O)[C@@H](C)[C@H](OC(C)=O)[C@@H]1C`
n

Try this molecule next: `O=C(Nc1ccccc1)OCc1cc(-c2ccccc2)c(C(F)(F)F)s1`
y

Try this molecule next: `CC1(C)CCc2cc(C=NNC(=O)c3cccc(Cl)c3Cl)ccc2O1`
n

Try this molecule next: `CO[C@H]1O[C@@H]2O[C@@]3(C)CC[C@H]4[C@H](C)CC[C@@H]([C@H]1C)[C@@]24OO3`
n

Try this molecule next: `COc1ccc(Cl)cc1N1C(=O)C=C(c2ccccc2)C1=O`
n
